Reference source for all entries: patent US8808702B2

# pIC50 per record follows
tested on: K562 (chronic myelogenous leukaemia); experiment: Effect of compounds on tumor cell lines (assay of Latham et al.), K562; format: cell-based; details: K562 cells, 96 hours after treatment, 1 μM to 100 μM; read-out: K 562 potency (IC50)
pIC50: −log10 of the molar value.
Endpoint name: pIC50

• O=C(O)c1ccc(C(=O)C(=Cc2ccc(Cl)c([N+](=O)[O-])c2)SCc2ccc(Cl)cc2Cl)cc1 [Example 300] = ≥ 6.00
• O=C(O)c1ccc(C(=O)/C(=C\c2ccc(Cl)c([N+](=O)[O-])c2)SCc2ccc(Br)cc2)cc1 [Example 168] = ≥ 6.00
• O=C(C(=Cc1c(O)cc(O)cc1O)SCc1ccc(Cl)c(Cl)c1)c1ccc(Cl)cc1 [Example 136] = 4.30 to 4.60
• O=C(O)c1ccc(C(=O)C(=Cc2ccc([N+](=O)[O-])c(O)c2)SCc2ccc(Br)cc2)cc1 [Example 156] = 5.00 to 6.00
• O=C(C(=Cc1c[nH]c2ccc(Cl)cc12)SCc1ccc(F)cc1)c1ccc(Br)cc1 [Example 267] = 5.00 to 6.00
• O=C(C(=Cc1ccc(OCc2ccccc2)cc1)SCc1ccccc1Cl)c1ccccc1Cl [Example 128] = 5.00 to 6.00
• Cc1ccc(CSC(=Cc2cc(C)ccc2C)C(=O)c2ccc(Cl)cc2)cc1 [Example 273] = 4.60 to 5.00
• O=C(C(=Cc1ccc(OCc2ccccc2)cc1)SCc1ccc(Cl)cc1Cl)c1ccc(Cl)cc1 [Example 121] = 4.60 to 5.00
• O=C(C(=Cc1cc(Br)c(O)c(Br)c1)SCc1ccc(Br)cc1)c1ccc(Br)cc1 [Example 147] = 4.60 to 5.00
• O=C(C(=Cc1ccc([N+](=O)[O-])cc1)SCc1ccc(Cl)cc1)c1ccc(Cl)cc1 [Example 326] = 5.00 to 6.00
• O=C(/C(=C\c1ccc(O)c([N+](=O)[O-])c1)SCc1ccc(Br)cc1)c1ccc([N+](=O)[O-])cc1 [Example 184] = 4.60 to 5.00
• O=C(C(=Cc1ccc(Cl)cc1)SCc1ccc(Cl)cc1)c1ccccc1Cl [Example 217] = 5.00 to 6.00
• CN(C)c1ccc(C=C(SCc2ccccc2Cl)C(=O)c2ccc(Cl)cc2)cc1 [Example 127] = 4.00 to 4.30
• O=C(O)c1ccc(C(=O)C(=Cc2ccc(Cl)c([N+](=O)[O-])c2)SCc2ccccc2F)cc1 [Example 304] = ≥ 6.00
• O=C(/C(=C\c1ccc(O)c([N+](=O)[O-])c1)SCc1ccc(Br)cc1)c1ccc(O)cc1O [Example 177] = 4.00 to 4.30
• O=C(O)c1ccc(C(=O)C(=Cc2ccc(N3CCN(Cc4ccccc4)CC3)c([N+](=O)[O-])c2)SCc2ccc(F)cc2)cc1 [Example 328] = 5.00 to 6.00

====

tested on: K562 (chronic myelogenous leukaemia); experiment: Effect of compounds on tumor cell lines (assay of Latham et al.), K562; format: cell-based; conditions: K562 cells, 96 hours after treatment, 1 μM to 100 μM; read-out: K 562 potency (IC50)
Endpoint name: IC50

• O=C(C(=Cc1c(O)cc(O)cc1O)SCc1ccc(Cl)cc1)c1ccc(Cl)cc1 [Example 192] = > 100 µM
• O=C(/C(=C\c1ccc([N+](=O)[O-])c(O)c1)SCc1ccc(Br)cc1)c1cc(Cl)ccc1O [Example 161] = 10 to 25 µM
• Cc1ccc(CSC(=Cc2ccc(N(C)C)cc2)C(=O)c2ccc(Cl)cc2)cc1 [Example 285] = 10 to 25 µM
• O=C(/C(=C\c1ccc(F)c([N+](=O)[O-])c1)SCc1ccc(F)cc1)c1ccc(SCc2ccc(F)cc2)c([N+](=O)[O-])c1 [Example 335] = 1 to 10 µM
• CN(C)c1ccc(C=C(SCc2ccc(Cl)cc2)C(=O)c2ccc(Br)cc2)cc1 [Example 208] = 1 to 10 µM
• Cc1ccc(C)c(C=C(SCc2ccc(Cl)cc2)C(=O)c2ccc(Cl)cc2)c1 [Example 197] = 10 to 25 µM
• COc1cc(OC)c(C=C(SCc2ccc(Cl)cc2Cl)C(=O)c2ccc(Cl)cc2)c(OC)c1 [Example 116] = 25 to 50 µM
• CCN(CC)CCNC(=O)c1c(C)[nH]c(/C=C(/SCc2ccc(Br)cc2)C(=O)c2ccc(C(=O)O)cc2)c1C [Example 163] = 50 to 100 µM
• O=C(C(=Cc1cc(Cl)c(O)c(Cl)c1)SCc1ccc(Br)cc1)c1ccc(Br)cc1 [Example 148] = 10 to 25 µM
• CN1CCN(CCCNC(=O)c2ccc(C(=O)C(=Cc3ccc(F)c([N+](=O)[O-])c3)SCc3ccc(Br)cc3)cc2)CC1 [Example 314] = 1 to 10 µM
• O=C(C(=Cc1ccc(F)c([N+](=O)[O-])c1)SCc1ccc(Br)cc1)c1ccc(Cl)c([N+](=O)[O-])c1 [Example 317] = > 100 µM
• CCOc1ccc(C=C(SCc2ccc(Cl)c(Cl)c2)C(=O)c2ccc(Cl)cc2)cc1OC [Example 143] = 1 to 10 µM
• O=C(/C(=C\c1ccc([N+](=O)[O-])c(O)c1)SCc1ccc(Br)cc1)c1ccc(C(F)(F)F)cc1 [Example 160] = 1 to 10 µM
• Cc1ccsc1C=C(SCc1ccc(Cl)cc1Cl)C(=O)c1ccc(Cl)cc1 [Example 119] = 50 to 100 µM
• O=C(O)c1ccc(C(=O)/C(=C\c2ccc(F)c([N+](=O)[O-])c2)SCc2ccc(C(F)(F)F)cc2)cc1 [Example 351] = ≤ 1 µM
• Cc1ccc(C=C(SCc2ccc(Cl)cc2Cl)C(=O)c2ccc(Cl)cc2)s1 [Example 124] = 50 to 100 µM
• CCN(CC)CCNC(=O)c1c(C)[nH]c(C=C(SCc2ccc(C)cc2)C(=O)c2ccc(C(=O)O)cc2)c1C [Example 284] = 50 to 100 µM
• O=C(O)c1ccc(C(=O)/C(=C\c2ccc(F)c([N+](=O)[O-])c2)SCc2ccc(Br)cc2)cc1 [Example 172] = 1 to 10 µM
• N#Cc1ccc(C(=O)/C(=C\c2ccc(O)c([N+](=O)[O-])c2)SCc2ccc(Br)cc2)cc1 [Example 182] = 10 to 25 µM
• O=C(C(=Cc1ccc(F)cc1C(F)(F)F)SCc1ccc(F)cc1)c1ccc(Br)cc1 [Example 260] = 10 to 25 µM
• COc1ccc(C=C(SCc2ccc(Cl)cc2)C(=O)c2ccc(Br)cc2)cc1 [Example 225] = 1 to 10 µM
• Cc1ccsc1C=C(SCc1ccccc1F)C(=O)c1ccc(Cl)cc1 [Example 134] = 50 to 100 µM
• COc1ccccc1C=C(SCc1ccccc1F)C(=O)c1ccc(Cl)cc1 [Example 133] = 1 to 10 µM
• CC(=O)Nc1ccc(/C=C(/SCc2ccc(F)cc2)C(=O)c2ccc(C(=O)O)cc2)cc1[N+](=O)[O-] [Example 332] = 1 to 10 µM
• O=C(C(=Cc1cccc(Cl)c1Cl)SCc1ccc(Cl)cc1Cl)c1ccc(Cl)cc1 [Example 114] = 1 to 10 µM
• COc1ccc(C=C(SCc2ccc(F)cc2)C(=O)c2ccc(C(=O)O)cc2)cc1O [Example 244] = 1 to 10 µM
• CN(C)c1ccc(C=C(SCc2ccc(Cl)cc2Cl)C(=O)c2ccc(Cl)cc2)cc1 [Example 120] = > 100 µM
• O=C(C(=Cc1ccc(Cl)cc1)SCc1ccc(Cl)cc1)c1ccc(Cl)cc1 [Example 324] = 1 to 10 µM
• O=C(NCCN1CCOCC1)c1ccc(C(=O)C(=Cc2ccc(F)c([N+](=O)[O-])c2)SCc2ccc(Br)cc2)cc1 [Example 312] = 1 to 10 µM
• O=C(C(=Cc1ccc([N+](=O)[O-])c(O)c1)SCc1ccc(Br)cc1)c1ccc(Br)cc1 [Example 155] = 1 to 10 µM
• O=C(C(=Cc1ccc(O)cc1O)SCc1ccc(Cl)cc1)c1ccc(Cl)cc1 [Example 196] = 50 to 100 µM

====

# pIC50 per record follows
test system: K562 (chronic myelogenous leukaemia); assay: Effect of compounds on tumor cell lines (assay of Latham et al.), K562; type: cell-based; settings: Table 1; K562 cells, examined 96 hours after treatment, 1 μM to 100 μM in DMSO; read-out: K 562 potency (IC50)
pIC50: −log10 of the molar value.
Endpoint name: pIC50

• Cc1ccc(SC(=Cc2sccc2C)C(=O)c2ccc(Cl)cc2)cc1 = 4.00 to 4.30
• COc1cc(OC)c(C=C(Sc2ccc(C)cc2)C(=O)c2ccc(Cl)cc2)c(OC)c1 = 4.30 to 4.60
• COc1ccc(SC(=Cc2ccc(Br)cc2)C(=O)c2ccc(Br)cc2)cc1 = 5.00 to 6.00
• CC(=O)Oc1ccc(C=C(Sc2ccc(C)cc2)C(=O)c2ccc(Cl)cc2)cc1 = 5.00 to 6.00
• Cc1ccc(SC(=Cc2c[nH]c3ccc(Cl)cc23)C(=O)c2ccc(Cl)cc2)cc1 = 5.00 to 6.00
• O=C(C(=Cc1ccc([N+](=O)[O-])c(O)c1)Sc1c(F)c(F)c(F)c(F)c1F)c1ccc(Br)cc1 = 5.00 to 6.00
• O=C(C(=Cc1ccc(O)c([N+](=O)[O-])c1)Sc1ccccc1Br)c1ccc(Cl)cc1 = 4.60 to 5.00
• O=C(C(=Cc1ccc(O)cc1O)Sc1ccccc1Br)c1ccc(Br)cc1 = 4.00 to 4.30
• O=C(C(=Cc1ccc(O)c([N+](=O)[O-])c1)Sc1ccccc1Br)c1ccc(Br)cc1 = 4.60 to 5.00
• O=C(C(=Cc1ccc(O)c(Br)c1)Sc1ccc(Br)cc1)c1c(F)c(F)c(F)c(F)c1F = 5.00 to 6.00
• O=C(C(=Cc1c[nH]c2ccccc12)Sc1ccc(Br)cc1)c1ccc(Br)cc1 = 5.00 to 6.00
• O=C(C(=Cc1ccc(Br)c(O)c1)Sc1ccc(Br)cc1)c1ccc(Br)cc1 = 5.00 to 6.00
• COc1ccc(C=C(Sc2ccc(Br)cc2)C(=O)c2ccc(Br)cc2)cc1 = 5.00 to 6.00
• O=C(C(=Cc1ccc(Cl)cc1)Sc1ccc(Cl)cc1)c1ccc(Cl)cc1 = 5.00 to 6.00
• Cc1ccc(SC(=Cc2c[nH]c3ccc(Br)cc23)C(=O)c2ccc(Cl)cc2)cc1 = 5.00 to 6.00
• COc1ccc(C(=O)C(=Cc2ccc(Br)cc2)Sc2ccc(F)cc2)cc1 = < 4.00
• COc1ccc(C=C(Sc2ccc(F)cc2)C(=O)c2ccc(OC)cc2)cc1 = 5.00 to 6.00
• O=C(C(=Cc1ccccc1F)Sc1ccc(Br)cc1)c1ccc(Cl)cc1 = 5.00 to 6.00
• O=C(C(=Cc1ccc([N+](=O)[O-])c(O)c1)Sc1ccc(Br)cc1)c1c(F)c(F)c(F)c(F)c1F = 5.00 to 6.00
• O=C(C(=Cc1ccc(F)cc1Cl)Sc1ccc(Br)cc1)c1ccc(Br)cc1 = 5.00 to 6.00
• COc1ccc(C=C(Sc2ccc(Br)cc2)C(=O)c2ccc(Br)cc2)c(F)c1 = 5.00 to 6.00
• CSc1ccc(C=C(Sc2ccc(C)cc2)C(=O)c2ccc(Br)cc2)cc1 = 5.00 to 6.00
• Cc1ccc(SC(=Cc2c(F)c(F)c(F)c(F)c2F)C(=O)c2ccc(Cl)cc2)cc1 = 4.30 to 4.60
• O=C(C(=Cc1cc(Cl)cc(Cl)c1Cl)Sc1ccccc1Br)c1ccc(Cl)cc1 = 4.00 to 4.30
• Nc1c(Br)cc(Br)cc1C=C(Sc1ccc(Br)cc1)C(=O)c1ccc(Br)cc1 = < 4.00
• O=C(C(=Cc1ccc(F)cc1F)Sc1ccc(Br)cc1)c1ccc(Br)cc1 = 5.00 to 6.00
• O=C(C(=Cc1ccc(Oc2ccccc2)cc1)Sc1ccc(Br)cc1)c1ccc(Br)cc1 = 4.00 to 4.30
• O=C(C(=Cc1ccccc1OCc1ccccc1)Sc1ccc(F)cc1)c1ccc(Cl)cc1 = 5.00 to 6.00
• O=C(C(=Cc1ccc(Br)cc1)Sc1ccc(Br)cc1)c1ccc(Cl)cc1 = 5.00 to 6.00
• O=C(C(=Cc1ccc(Cl)c([N+](=O)[O-])c1)Sc1ccc(Br)cc1)c1ccc(Br)cc1 = 5.00 to 6.00
• O=C(C(=Cc1ccc(F)cc1)Sc1ccc(Br)cc1)c1ccc(Br)cc1 = 5.00 to 6.00
• O=C(C(=Cc1ccc(Br)c([N+](=O)[O-])c1)Sc1ccc(Br)cc1)c1ccc(Br)cc1 = 5.00 to 6.00
• O=C(C(=Cc1ccc(Br)cc1)Sc1ccc(Br)cc1)c1ccc(Br)cc1 = 5.00 to 6.00
• Cc1ccc(SC(=Cc2ccc(F)cc2OC(F)(F)F)C(=O)c2ccc(Br)cc2)cc1 = 4.30 to 4.60
